These measurements were taken from ChEMBL document CHEMBL4840338.

tested on: Escherichia coli; assay: Antibacterial activity against Escherichia coli ATCC 25922 assessed as bacterial growth inhibition incubated for 16 to 18 hrs by broth microdilution method; type: functional; conditions: time 16-18 hrs
Task for the reader: assign each of the following molecules its reported MIC.

[Q] Dear colleague, I am looking for the recorded MIC of the following molecule: CC(C)=CCc1c(O)cc2oc(-c3ccc(O)cc3O)c(CC=C(C)C)c(=O)c2c1O
[A] > 64 µg/mL

[Q] Note, next up: CO[C@H]1/C=C/O[C@@]2(C)Oc3c(C)c(O)c4c(O)c(c(/C=N/N5CCN(C)CC5)c(O)c4c3C2=O)NC(=O)/C(C)=C\C=C\[C@H](C)[C@H](O)[C@@H](C)[C@@H](O)[C@@H](C)[C@H](OC(C)=O)[C@@H]1C
[A] 8 µg/mL

[Q] Note, next up: CC(C)=CC1Oc2cc(O)ccc2-c2oc3cc4c(c(O)c3c(=O)c21)C=CC(C)(C)O4 (stereo not drawn)
[A] > 64 µg/mL
